tested on: SU-DHL-5 (B-Cell Non-Hodgkin's Lymphoma); assay: Bliss excess, mean over the matrix (fraction); higher = more synergy
Experimental Endpoint: Bliss excess

Compound	Bliss excess
COc1cccc(OCCCN)c1-c1cc(Nc2cnc(C#N)cn2)n[nH]1 [Prexasertib] + C[C@@H]1COCCN1C2=NC(=NC(=C2)C3(CC3)[S@](=N)(=O)C)C4=C5C=CNC5=NC=C4 [AZD6738] (first compound max 1 µM, 7x7, partner max 10 µM)	-0.0147
C[C@@H](c1ccc2nccn2c1)n1nnc2ncc(-c3cnn(C)c3)nc21 [Savolitinib] + CN(CC[C@H](CSC1=CC=CC=C1)NC2=C(C=C(C=C2)S(=O)(=O)NC(=O)C3=CC=C(C=C3)N4CCC(CC4)[C@H](C5=CC=CC=C5C6=CC=C(C=C6)Cl)O)S(=O)(=O)C(F)(F)F)CCO [AZD4320] (first compound max 1 µM, 7x7, partner max 1 µM)	-0.0451
CC1(C)CCC(CN2CCN(c3ccc(C(=O)NS(=O)(=O)c4ccc(NCC5CCOCC5)c([N+](=O)[O-])c4)c(Oc4cnc5[nH]ccc5c4)c3)CC2)=C(c2ccc(Cl)cc2)C1 [Venetoclax] + Cn1cnc2c(F)c(Nc3ccc(Br)cc3Cl)c(C(=O)NOCCO)cc21 [Selumetinib] (first compound max 1 µM, 7x7, partner max 3 µM)	0.0355
Cc1c2c(nn1C)CSCc1cc(n(C)n1)CSc1cc(c3ccccc3c1)OCCCc1c(C(=O)O)n(C)c3c-2c(Cl)ccc13 [AZD5991] + C[C@@H](Nc1cc(F)cc(F)c1)c1cc(C(=O)N(C)C)cc2c(=O)cc(N3CCOCC3)oc12 [AZD8186] (first compound max 1 µM, 7x7, partner max 3 µM)	0.0109

query: Item COc1cccc(OCCCN)c1-c1cc(Nc2cnc(C#N)cn2)n[nH]1 [Prexasertib] + O=C(c1cc(Cc2n[nH]c(=O)c3ccccc23)ccc1F)N1CCN(C(=O)C2CC2)CC1 [Olaparib] (first compound max 1 µM, 7x7, partner max 10 µM) : provide Bliss excess
result: -0.0097

query: Item Cc1nc(Nc2ncc(C(=O)Nc3c(C)cccc3Cl)s2)cc(N2CCN(CCO)CC2)n1 [Dasatinib] + CC(=O)Nc1cccc(-n2c(=O)n(C3CC3)c(=O)c3c(Nc4ccc(I)cc4F)n(C)c(=O)c(C)c32)c1 [Trametinib] (first compound max 2 µM, 7x7, partner max 1 µM) : provide Bliss excess
result: 0.0159

###

tested on: HCC1187 (Breast Carcinoma); test: Bliss excess, mean over the matrix (fraction); higher = more synergy
Experimental Endpoint: Bliss excess

Answered cases to consult:
Molecule	Assayed Target	Result
CS(=O)(=O)CCNCc1ccc(-c2ccc3ncnc(Nc4ccc(OCc5cccc(F)c5)c(Cl)c4)c3c2)o1 [Lapatinib] + C[C@@H](Oc1cc(-c2cnn(C3CCNCC3)c2)cnc1N)c1c(Cl)ccc(F)c1Cl [Crizotinib] (first compound max 10 µM, 7x7, partner max 10 µM)	HCC1187 (Breast Carcinoma)	-0.0156
CC1(C)CCC(CN2CCN(c3ccc(C(=O)NS(=O)(=O)c4ccc(NCC5CCOCC5)c([N+](=O)[O-])c4)c(Oc4cnc5[nH]ccc5c4)c3)CC2)=C(c2ccc(Cl)cc2)C1 [Venetoclax] + COc1cc(Nc2ncc3c(n2)-c2ccc(Cl)cc2C(c2c(F)cccc2OC)=NC3)ccc1C(=O)O [Alisertib] (first compound max 1 µM, 7x7, partner max 10 µM)	HCC1187 (Breast Carcinoma)	-0.0999
CC1(C)CCC(CN2CCN(c3ccc(C(=O)NS(=O)(=O)c4ccc(NCC5CCOCC5)c([N+](=O)[O-])c4)c(Oc4cnc5[nH]ccc5c4)c3)CC2)=C(c2ccc(Cl)cc2)C1 [Venetoclax] + CCN(CCO)CCCOc1ccc2c(Nc3cc(CC(=O)Nc4cccc(F)c4)[nH]n3)ncnc2c1 [AZD2811] (first compound max 1 µM, 7x7, partner max 1 µM)	HCC1187 (Breast Carcinoma)	-0.0165
Cc1cc2ncnn2cc1Nc1ncc2c(n1)n(C1CCOCC1)c(=O)n2C [AZD7648] + C[C@@H]1COCCN1C2=NC(=NC(=C2)C3(CC3)[S@](=N)(=O)C)C4=C5C=CNC5=NC=C4 [AZD6738] (first compound max 10 µM, 7x7, partner max 10 µM)	HCC1187 (Breast Carcinoma)	0.0005
CN(C)CCCOc1ccc(-c2ccc3ncc4c(c3c2)n(C2CCOCC2)c(=O)n4C)cn1 [AZD0156] + CCN(CCO)CCCOc1ccc2c(Nc3cc(CC(=O)Nc4cccc(F)c4)[nH]n3)ncnc2c1 [AZD2811] (first compound max 1 µM, 7x7, partner max 1 µM)	HCC1187 (Breast Carcinoma)	-0.0596

query: Item NC1(C(=O)N[C@@H](CCO)c2ccc(Cl)cc2)CCN(c2ncnc3[nH]ccc23)CC1 [Capivasertib] + CC(=O)c1c(C)c2cnc(Nc3ccc(N4CCNCC4)cn3)nc2n(C2CCCC2)c1=O [Palbociclib] (first compound max 10 µM, 7x7, partner max 10 µM) : provide Bliss excess
result: 0.0279

###

tested on: NCI-H3122 (Lung Adenocarcinoma); assay: combination Emax (second highest fraction inhibited in the dose matrix, 72 h); higher = more inhibition; extreme values may be limits of the assay
This section presents compounds with their documented combination Emax values.
Lab note: write the figure by itself, no unit.

Answered cases to consult:
Compound	Assayed Target	combination Emax
COc1nnc2ccc(N3CCC(c4ccc(OCCN5CCN(C)C(=O)[C@H]5C)cc4)CC3)nn12 [AZD5153] + Cn1cnc2c(F)c(Nc3ccc(Br)cc3Cl)c(C(=O)NOCCO)cc21 [Selumetinib] (first compound max 1 µM, 7x7, partner max 10 µM)	NCI-H3122 (Lung Adenocarcinoma)	0.68
CCc1c2c(nc3ccc(O)cc13)-c1cc3c(c(=O)n1C2)COC(=O)[C@]3(O)CC [SN-38] + O=C(c1cc(Cc2n[nH]c(=O)c3ccccc23)ccc1F)N1CCN(C(=O)C2CC2)CC1 [Olaparib] (first compound max 0.3 µM, 7x7, partner max 10 µM)	NCI-H3122 (Lung Adenocarcinoma)	0.932

Next up:
query: Item COc1nnc2ccc(N3CCC(c4ccc(OCCN5CCN(C)C(=O)[C@H]5C)cc4)CC3)nn12 [AZD5153] + CCN(CCO)CCCOc1ccc2c(Nc3cc(CC(=O)Nc4cccc(F)c4)[nH]n3)ncnc2c1 [AZD2811] (first compound max 1 µM, 7x7, partner max 1 µM) : provide combination Emax
result: 0.668

###

tested on: NCI-H929 (Plasma Cell Myeloma); assay: Bliss excess, mean over the matrix (fraction); higher = more synergy
Experimental Endpoint: Bliss excess
Lab note: write the figure by itself, no unit.

Answered cases to consult:
Compound	Experimental Endpoint	Numeric Result
O=C(c1cc(Cc2n[nH]c(=O)c3ccccc23)ccc1F)N1CCN(C(=O)C2CC2)CC1 [Olaparib] + CC1(C)CCC(CN2CCN(c3ccc(C(=O)NS(=O)(=O)c4ccc(NCC5CCOCC5)c([N+](=O)[O-])c4)c(Oc4cnc5[nH]ccc5c4)c3)CC2)=C(c2ccc(Cl)cc2)C1 [Venetoclax] (first compound max 10 µM, 7x7, partner max 1 µM)	Bliss excess	-0.0036
CN(CCO)CC[C@H](CSc1ccccc1)Nc1ccc(S(=O)(=O)NC(=O)c2ccc(N3CCC([C@@H](O)c4ccccc4-c4ccc(Cl)cc4)CC3)cc2)cc1S(=O)(=O)C(F)(F)F [AZD4320] + Nc1ccn([C@@H]2O[C@H](CO)[C@@H](O)C2(F)F)c(=O)n1 [Gemcitabine] (first compound max 1 µM, 7x7, partner max 0.3 µM)	Bliss excess	-0.0176
N#Cc1cnc(Nc2cc(NC[C@H]3CNCCO3)c(C(F)(F)F)cn2)cn1 [SRA737] + Nc1ccn([C@@H]2O[C@H](CO)[C@@H](O)C2(F)F)c(=O)n1 [Gemcitabine] (first compound max 10 µM, 7x7, partner max 0.3 µM)	Bliss excess	0.0643

query: Item CN(C)CCCOc1ccc(-c2ccc3ncc4c(c3c2)n(C2CCOCC2)c(=O)n4C)cn1 [AZD0156] + C[C@@H]1COCCN1C2=NC(=NC(=C2)C3(CC3)[S@](=N)(=O)C)C4=C5C=CNC5=NC=C4 [AZD6738] (first compound max 1 µM, 7x7, partner max 10 µM) : provide Bliss excess
result: -0.0182

###

system: COR-L279 (Small Cell Lung Carcinoma); test: combination Emax (second highest fraction inhibited in the dose matrix, 72 h); higher = more inhibition; extreme values may be limits of the assay
Experimental Endpoint: combination Emax
Lab note: write the figure by itself, no unit.

Answered cases to consult:
Compound	Assayed Target	combination Emax
COc1nnc2ccc(N3CCC(c4ccc(OCCN5CCN(C)C(=O)[C@H]5C)cc4)CC3)nn12 [AZD5153] + C=CCn1c(=O)c2cnc(Nc3ccc(N4CCN(C)CC4)cc3)nc2n1-c1cccc(C(C)(C)O)n1 [AZD1775] (first compound max 1 µM, partner max 1 µM)	COR-L279 (Small Cell Lung Carcinoma)	0.899
COc1cccc(OCCCN)c1-c1cc(Nc2cnc(C#N)cn2)n[nH]1 [Prexasertib] + C=CCn1c(=O)c2cnc(Nc3ccc(N4CCN(C)CC4)cc3)nc2n1-c1cccc(C(C)(C)O)n1 [AZD1775] (first compound max 1 µM, partner max 1 µM)	COR-L279 (Small Cell Lung Carcinoma)	0.881

query: Item COc1nnc2ccc(N3CCC(c4ccc(OCCN5CCN(C)C(=O)[C@H]5C)cc4)CC3)nn12 [AZD5153] + CCN(CCO)CCCOc1ccc2c(Nc3cc(CC(=O)Nc4cccc(F)c4)[nH]n3)ncnc2c1 [AZD2811] (first compound max 1 µM, 7x7, partner max 1 µM) : provide combination Emax
result: 0.907
